Data origin: PubChem BioAssay (NCI)

- Test system: HS 578T breast
- method_summary: NCI-60 one-dose screen, 48 h (100 = growth as untreated, 0 = no growth, -100 = all killed)
- conditions_used: 10 µM unless noted
The panel holds about 83,000 compounds, 20% with a hit somewhere; the sample as a whole holds those more often. Activity calls are given as the source filed them. The calls were made as follows: active = growth percent below 10; inactive = the rest.
Each item that follows carries a reported growth.

{"compound": "CCOc1cc2ncc(C#N)c(Nc3ccc(OCc4cccc(F)c4)c(Cl)c3)c2cc1NC(=O)CCCCC1CCSS1 (stereo not drawn)", "growth": "91.3% (inactive)"}
{"compound": "CC(=O)O[C@H]1C(=O)[C@@]2(C)[C@H]([C@H](OC(=O)c3ccccc3)[C@]3(O)C[C@H](OC(=O)[C@H](OC(=O)CCC(=O)OC4CCC(S/N=C(N)/N=C(\\N)N(C)C)CC4)[C@@H](NC(=O)c4ccccc4)c4ccccc4)C(C)=C1C3(C)C)[C@]1(OC(C)=O)CO[C@@H]1C[C@@H]2O (stereo partly drawn)", "growth": "-9.33% (active)"}
{"compound": "COc1ccc(/C=C\\c2cc(OC)c(OC)c(OC)c2)cc1OC(=O)c1cccc(Cn2cc(CCOC(=O)[C@H](N)Cc3cn(C)c4ccccc34)nn2)c1", "growth": "26.9% (inactive)"}
{"compound": "N#CCCN=Nc1c(O)[nH]c2ccc(F)cc12", "growth": "97.9% (inactive)"}
{"compound": "CC(=O)O[C@H]1[C@@H]2OC(=O)C(CSc3ccccc3)[C@@H]2C[C@H]2O[C@]2(C)CC/C=C(\\C)CCC[C@@H]1C (stereo partly drawn)", "growth": "69.6% (inactive)"}
{"compound": "Cc1ccc(-c2onc3c(=O)[nH]nc(-c4ccccc4)c23)cc1", "growth": "16.7% (inactive)"}
{"compound": "FC(F)(F)c1ccc(-c2cn3nc(-c4c[nH]c5ccc(Br)cc45)sc3n2)cc1", "growth": "89.1% (inactive)"}
{"compound": "CC1CCNC(C)C1 (stereo not drawn)", "growth": "104% (inactive)"}

* * *

- Tested on: SW-620 colon
- method_summary: NCI-60 one-dose screen, 48 h (100 = growth as untreated, 0 = no growth, -100 = all killed)
- conditions_used: 10 µM unless noted
- Procedure: Growth inhibition of the SW-620 human tumor cell line is measured as a screen for anti-cancer activity. Cells are grown in 96 well plates and exposed to the test compound for 48 hours. Compounds are tested at a single concentration, which is 10^-5 M for most compounds. The reported endpoint is percent growth (GI% or GIPRCNT), where numbers from 0 - 100% represent growth inhibition, and numbers from -100% - 0 represent cell death. For example, a value of 40 represents 60% growth inhibition. […]
Compounds without any hit were thinned out: in the full panel of roughly 83,000, 20% have a hit.
Each item that follows carries a reported growth.

{"molecule": "Cn1ncc2c(=O)nc3c(-c4ccccc4)n[nH]n3c21", "growth [%]": 107}
{"molecule": "COc1cc2c(cc1O)CC[C@@H]1[C@@H]2CC[C@]2(C)[C@@H](OCCCN(C)C)CC[C@@H]12", "growth [%]": -43.1}
{"molecule": "Cn1ccnc1C(=O)/C=C/c1ccccc1", "growth [%]": 5.92}
{"molecule": "O=c1cc(/C(=C2/C=CC=N2)c2ccc[nH]2)c2cc(Cl)ccc2o1", "growth [%]": 34.8}
{"molecule": "CC(=O)O[C@H]1C(=O)[C@@]2(C)[C@H]([C@H](OC(=O)c3ccccc3)[C@]3(O)C[C@H](OC(=O)[C@H](OC(=O)CCC(=O)OC4CCC(S/N=C(N)/N=C(\\N)N(C)C)CC4)[C@@H](NC(=O)c4ccccc4)c4ccccc4)C(C)=C1C3(C)C)[C@]1(OC(C)=O)CO[C@@H]1C[C@@H]2O (some centres undefined)", "growth [%]": 41.7}
{"molecule": "NC(=O)c1cc(Br)ccc1NC(=O)/C=C/c1ccccc1", "growth [%]": 29.1}
{"molecule": "CC(=O)O[C@H]1CC[C@]2(C)[C@H]3CC=C4[C@@H]5CC(C)(C)CC[C@]5(C(=O)NCCNCCN)CC[C@@]4(C)[C@]3(C)CC[C@H]2C1(C)C", "growth [%]": -84.6}
{"molecule": "Cc1cc2nc3[nH]c4ccccc4c3nc2cc1C", "growth [%]": 73.3}
{"molecule": "Cc1ccc(NC(=O)/C=C/c2ccccc2)c(C(N)=O)c1", "growth [%]": 22.7}

* * *

- System: UO-31 renal
- method_summary: NCI-60 one-dose screen, 48 h
- conditions_used: 10 µM unless noted
Compounds without any hit were thinned out: in the full panel of roughly 83,000, 20% have a hit. Active and inactive are the calls of the source. How the source made its calls: active means growth percent below 10; inactive means the rest.
Possible outcomes: YES for active, NO for inactive

{"compound": "CCN(CC)S(=O)(=O)c1ccc(OC)c(NC(=O)c2[nH]c(C)c3c2CCCCC3=O)c1", "group": "NO"}
{"compound": "COC(=O)c1cccc(NC(=O)c2ccc(-c3cccc(N)c3)o2)c1", "group": "NO"}
{"compound": "CCCCn1c(-c2ccc(C(=O)O/N=C(\\N)c3ccc4c(c3)OCO4)cc2)nc(-c2ccccc2)c1-c1ccccc1", "group": "YES"}
{"compound": "O=S(=O)(Nc1ccc(OC(F)F)cc1)c1ccc(-c2cnc(C3CC3)o2)cc1", "group": "NO"}
{"compound": "NNCCc1ccc(NC(=O)CCCc2ccc(/C=C/C(=O)NO)cc2)cc1", "group": "NO"}
{"compound": "CC/C=C\\C/C=C\\C[C@H]1C/C=C2/C(=O)C=C[C@@H]2C/C=C\\CCC(=O)O1", "group": "YES"}
{"compound": "Cc1cc(N2CCN(c3ccnc4cc(Cl)ccc34)CC2)nc(NC2CCCCC2)n1", "group": "YES"}
{"compound": "CC[C@]1(O)C[C@@H]2CN(CCc3c([nH]c4ccccc34)[C@@](C(=O)OC)(c3cc4c(cc3OC)N(C)[C@H]3[C@@](O)(C(N)=O)[C@H](O)[C@]5(CC)[C@@H]6C[C@@H]6CN6CC[C@]43[C@@H]65)C2)C1", "group": "NO"}
{"compound": "COc1ccc2c(c1)C(=O)/C(=C/c1ccccn1)CC2", "group": "NO"}
{"compound": "COC(=O)[C@@H]1CCCN1C(=O)[C@@H]1CCCN1C(=O)[C@H](Cc1ccccc1)NC(=S)Nc1cc(C(F)(F)F)cc(C(F)(F)F)c1", "group": "NO"}
{"compound": "OC(c1cc2cc(Cl)c(Cl)cc2c2cc(C(F)(F)F)ccc12)C1CCCCN1 (stereo unspecified)", "group": "YES"}
{"compound": "O=C(CN1CCCCC1)Nc1ccc2oc(=O)ccc2c1", "group": "NO"}
{"compound": "COc1ccc(-c2nc(SCC(=O)Nc3ccc(C(=O)/C=C/c4ccc(Cl)cc4)cc3)[nH]c(=O)c2C#N)cc1", "group": "NO"}
{"compound": "FC(F)(F)c1ccc(-c2cn3nc(-c4c[nH]c5ccc(Br)cc45)sc3n2)cc1", "group": "NO"}
{"compound": "Nc1ccc(S(=O)(=O)O)c2ccc(N=Nc3ccc(N=Nc4ccc(S(=O)(=O)O)cc4)c4ccccc34)c(O)c12", "group": "NO"}
{"compound": "O=C(N=Nc1c(O)[nH]c2ccc(Br)cc12)c1cc(-c2ccccc2)on1", "group": "NO"}
{"compound": "Cc1oc(-c2ccc(Cl)cc2Cl)cc1C(=O)Nc1nccs1", "group": "NO"}
{"compound": "CN1CCN(c2ccc3nc(-c4ccc(OCCCCN5CCN(CCCCN6C(=O)c7cccc8cccc(c78)C6=O)CC5)cc4)[nH]c3c2)CC1", "group": "NO"}
{"compound": "C=C1c2nc3ccccc3n2C=C(c2ccc(OC)cc2)N1Cc1ccccc1", "group": "NO"}
{"compound": "COc1cccc(/C=N/NC(=O)c2ccccc2Nc2ccnc(C(F)(F)F)c2)c1O", "group": "YES"}
{"compound": "COc1ccc(-c2nc3cc(C(=O)Nc4cc(OC)c(OC)c(OC)c4)ccc3n2C2CCCCC2)cc1", "group": "NO"}
{"compound": "Nc1n[nH]c2cc(F)c([C@@H]3Nc4ccc5[nH]ncc5c4[C@H]4C5CCC(C5)[C@@H]34)cc12 (stereo partly specified)", "group": "NO"}
{"compound": "CCNC(=O)Oc1ccc(/C(=C(\\C)c2ccc(Cl)cc2)c2ccc(OCCN(CC)CC)cc2)cc1", "group": "NO"}
{"compound": "O=C1C=C(OCC=C(Cl)Cl)C(=O)c2ccccc21", "group": "NO"}
{"compound": "C#CCOc1ccc2ncnc(NCc3cccc(NC(=O)CCl)c3)c2c1", "group": "NO"}
{"compound": "COC[C@H](C)n1c(C2CCOCC2)nc2cnc3cc(-c4c(C)noc4C)c(OC)cc3c21", "group": "NO"}
{"compound": "Clc1ccc2c(NCCCCNc3nc(N4CCCCC4)nc4ccccc34)ccnc2c1", "group": "YES"}
{"compound": "C#CCOc1ccc2ncnc(N3CCN(C(=O)CCl)CC3)c2c1", "group": "NO"}
{"compound": "COc1ccc(-c2n[nH]nc2-c2csc3ccccc23)cc1OC", "group": "NO"}
{"compound": "CSc1nc(Nc2cccc(NC(=O)CCl)c2)c(C#N)c(-c2cccc([N+](=O)[O-])c2)n1", "group": "NO"}
{"compound": "CCCOc1ccc2nc(NC(=O)OC)[nH]c2c1", "group": "NO"}
{"compound": "CCOC(=O)c1sc2nc(-c3cccc(O)c3)nc(N3CCOCC3)c2c1C", "group": "NO"}
{"compound": "CC(C)(O)c1cn(CCCCN2C(=O)C(=O)c3ccccc32)nn1", "group": "NO"}
{"compound": "CC(=O)O[C@H]1CC[C@]2(C)[C@H]3CC=C4[C@@H]5CC(C)(C)CC[C@]5(C(=O)NCCNCCNCCN)CC[C@@]4(C)[C@]3(C)CC[C@H]2C1(C)C", "group": "NO"}
{"compound": "CC(C)C1=C[C@@]23CC[C@@H]4[C@](C)(CCC[C@@]4(C)C(=O)N4CCCNCC4)[C@H]2C[C@@H]1[C@H]1C(=O)CCC(=O)[C@H]13", "group": "NO"}
{"compound": "Cc1ccc2c(C(C[N+](=O)[O-])c3ccco3)c(-c3ccccc3)[nH]c2c1 (stereo unspecified)", "group": "NO"}
